So I've got a bunch of compounds here, and I need their Activity values.
Target: 5-hydroxytryptamine receptor 2A (Rattus norvegicus) (UniProt P14842)
Sequence (P14842 whole entry): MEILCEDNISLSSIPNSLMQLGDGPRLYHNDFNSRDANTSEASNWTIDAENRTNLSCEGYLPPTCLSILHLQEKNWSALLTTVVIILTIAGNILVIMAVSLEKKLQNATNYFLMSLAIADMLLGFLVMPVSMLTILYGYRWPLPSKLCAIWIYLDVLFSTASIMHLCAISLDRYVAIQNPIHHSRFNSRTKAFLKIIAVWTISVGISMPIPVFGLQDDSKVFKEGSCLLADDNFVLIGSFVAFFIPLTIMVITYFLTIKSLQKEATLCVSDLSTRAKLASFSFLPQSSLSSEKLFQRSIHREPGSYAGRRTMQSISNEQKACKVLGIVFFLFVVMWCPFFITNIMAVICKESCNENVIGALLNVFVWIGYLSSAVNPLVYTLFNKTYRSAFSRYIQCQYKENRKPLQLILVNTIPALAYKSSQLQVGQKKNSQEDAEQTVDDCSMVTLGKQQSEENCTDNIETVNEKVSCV
Experiment: Activity at rat 5HT2A receptor assessed as 5-HT-stimulated IP3 accumulation
Type: functional

Answered examples (3):
>>> observed_measurement("COc1cc(CCN)cc(OC)c1OC")
"86%"
>>> observed_measurement("COc1cc2c(c(OC)c1OC)CC[C@H]2CN")
"88%"
>>> observed_measurement("COc1cc2c(c(OC)c1OC)CC[C@@H]2CN")
"59%"

Provide reported Activity for each item, in the same order as listed.
1. COc1cc2c(c(OC)c1OC)CCC2CN (racemic)
2. CCN(CC)C(=O)[C@@H]1C=C2c3cccc4[nH]cc(c34)C[C@H]2N(C)C1 [LYSERGIDE]

Resp:
1: 83%; 2: 20%
